# Test system: S. pneumoniae D39V
# assay-method-text: Bliss interaction score (quartile over a dose matrix) (fitness difference); higher = more antagonism (negative = synergy);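 note: first quartile when negative (synergy) and third quartile when positive (antagonism)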
If the reported Bliss interaction score equals or exceeds 0.05, assign 1 (yes). If not, assign 0 (no).

Record excerpt, results attached:
1. COc1cccc2c1C(=O)c1c(O)c3c(c(O)c1C2=O)C[C@@](O)(C(=O)CO)C[C@@H]3O[C@H]1C[C@H](N)[C@H](O)[C@H](C)O1 [Doxorubicin] + CC[C@H]1OC(=O)[C@H](C)[C@@H](O[C@H]2C[C@@](C)(OC)[C@@H](O)[C@H](C)O2)[C@H](C)[C@@H](O[C@@H]2O[C@H](C)C[C@H](N(C)C)[C@H]2O)[C@](C)(O)C[C@@H](C)C(=O)[C@H](C)[C@@H](O)[C@]1(C)O [Erythromycin] :: 1 (yes)
2. COc1cccc2c1C(=O)c1c(O)c3c(c(O)c1C2=O)C[C@@](O)(C(=O)CO)C[C@@H]3O[C@H]1C[C@H](N)[C@H](O)[C@H](C)O1 [Doxorubicin] + CN[C@H](CC(C)C)C(=O)N[C@H]1C(=O)N[C@@H](CC(N)=O)C(=O)N[C@H]2C(=O)N[C@H]3C(=O)N[C@H](C(=O)N[C@H](C(=O)O)c4cc(O)cc(O)c4-c4cc3ccc4O)[C@H](O)c3ccc(c(Cl)c3)Oc3cc2cc(c3O[C@@H]2O[C@H](CO)[C@@H](O)[C@H](O)[C@H]2O[C@H]2C[C@](C)(N)[C@H](O)[C@H](C)O2)Oc2ccc(cc2Cl)[C@H]1O [Vancomycin] :: 0 (no)
3. O=C(O)c1cn(C2CC2)c2cc(N3CCNCC3)c(F)cc2c1=O [Ciprofloxacin] + COc1cc(Cc2cnc(N)nc2N)cc(OC)c1OC [Trimethoprim] :: 1 (yes)
4. C[C@H]1c2cccc(O)c2C(=O)C2=C(O)[C@]3(O)C(=O)C(C(N)=O)=C(O)[C@@H](N(C)C)[C@@H]3[C@@H](O)[C@@H]21 [Doxycycline] + C[n+]1ccc(-c2cc[n+](C)cc2)cc1 [Paraquat] :: 0 (no)
5. CC(=O)Oc1ccccc1C(=O)O [Acetylsalicylicacid] + CC[C@H]1OC(=O)[C@H](C)[C@@H](O[C@H]2C[C@@](C)(OC)[C@@H](O)[C@H](C)O2)[C@H](C)[C@@H](O[C@@H]2O[C@H](C)C[C@H](N(C)C)[C@H]2O)[C@](C)(OC)C[C@@H](C)C(=O)[C@H](C)[C@@H](O)[C@]1(C)O [Clarithromycin] :: 1 (yes)
6. Cc1ncc([N+](=O)[O-])n1CCO [Metronidazole] + CC1(C)S[C@@H]2[C@H](NC(=O)Cc3ccccc3)C(=O)N2[C@H]1C(=O)O [PenicillinG] :: 1 (yes)

# input Test whether the compound CO/N=C(\C(=O)N[C@@H]1C(=O)N2C(C(=O)O)=C(COC(N)=O)CS[C@H]12)c1ccco1 [Cefuroxime] + COc1c(N2C[C@@H]3CCCN[C@@H]3C2)c(F)cc2c(=O)c(C(=O)O)cn(C3CC3)c12 [Moxifloxacin] records Bliss interaction score of 0.05 or higher.
# output 0 (no)

====

Overview of reported Bliss interaction score across a group of compounds:
# System: B. subtilis 168
# assay-method-text: Bliss interaction score (quartile over a dose matrix) (fitness difference); higher = more antagonism (negative = synergy)
Please give only the number in your answer, with no unit.

1) C[C@H]1c2cccc(O)c2C(=O)C2=C(O)[C@]3(O)C(=O)C(C(N)=O)=C(O)[C@@H](N(C)C)[C@@H]3[C@@H](O)[C@@H]21 [Doxycycline] + CN(C)C(=O)C(CCN1CCC(O)(c2ccc(Cl)cc2)CC1)(c1ccccc1)c1ccccc1 [Loperamide] :: -0.189
2) CN(C)[C@@H]1C(O)=C(C(N)=O)C(=O)[C@@]2(O)C(O)=C3C(=O)c4c(O)ccc(Cl)c4[C@@](C)(O)[C@H]3C[C@@H]12 [Clortetracycline] + COc1ccc(C[C@H](N)C(=O)N[C@H]2[C@@H](O)[C@H](n3cnc4c(N(C)C)ncnc43)O[C@@H]2CO)cc1 [Puromycin] :: -0.0605
3) C[C@H]1c2cccc(O)c2C(=O)C2=C(O)[C@]3(O)C(=O)C(C(N)=O)=C(O)[C@@H](N(C)C)[C@@H]3[C@@H](O)[C@@H]21 [Doxycycline] + CC[C@H]1OC(=O)[C@H](C)[C@@H](O[C@H]2C[C@@](C)(OC)[C@@H](O)[C@H](C)O2)[C@H](C)[C@@H](O[C@@H]2O[C@H](C)C[C@H](N(C)C)[C@H]2O)[C@](C)(O)C[C@@H](C)C(=O)[C@H](C)[C@@H](O)[C@]1(C)O [Erythromycin] :: -0.162

Here is the next item to consider.
Just so you know, measured Bliss interaction score for O=C(O)c1cn(C2CC2)c2cc(N3CCNCC3)c(F)cc2c1=O [Ciprofloxacin] + CC(=O)NC[C@H]1CN(c2ccc(N3CCOCC3)c(F)c2)C(=O)O1 [Linezolid] came out at 0.247

Reference for the values: the supplement of paper PMC10627819
